Tested on: HOP-92 NSCLC
Test: NCI-60 one-dose screen, 48 h
Settings: 10 µM unless noted
This is part of a sample that, as a whole, favours compounds with a hit. Of some 83,000 tested, about 20% had one in any assay. Calls of active or inactive are those of the source. The calls were made as follows: active = growth percent below 10; inactive = the rest.
Outcome codes: y = active, n = inactive

In [3]: df
Out[3]:
                                    molecule  category
 0  O=C(Cc1ccc(F)c(F)c1)Nc1cc(C2(C(F)(F)F)CC2)nn1Cc1ccccc1         y
 1  COc1ccc2c(c1)C(=O)/C(=C/c1ccc(OCC(=O)Nc3nccs3)cc1)O2         y
 2  N#CC1=C(NC=O)Oc2c(ccc3ccccc23)C1c1ccccc1 (stereo unspecified)         n
 3    CC/C=C1/C(=O)C=C[C@@H]1C/C=C\CCCC(=O)O         n
 4        Fc1ccc(CNc2c3ccccc3nc3ccccc23)cc1F         y
 5  CC(CN1CCCCC1)C(=O)c1ccccc1 (stereo unspecified)         n
 6  O=C(Nc1ccc(Nc2ccncc2)cc1)c1ccc(C(=O)Nc2ccc(Nc3ccncc3)cc2)cc1         n
 7                     O=C(O)c1ccc2c(c1)CCC2         n
 8  O=[N+]([O-])c1ccc(C2CC(c3ccccc3)=Nc3ccccc3S2)cc1 (stereo unspecified)         n
 9  Cc1nn(-c2ccccc2)c(Oc2ccc(Cl)cc2)c1/C=N\N=c1/sc2ccccc2n1C         n
10  CC(C)C(NC(=O)C1(NC(=O)OCc2ccccc2)CCCC1)C(=O)O (stereo unspecified)         n

The measured values listed here are drawn from PubChem BioAssay (NCI).
